target: NUDT2 Bis(5-nucleosyl)-tetraphosphatase (Homo sapiens); construct: isoTOP-ABPP experiments performed in cell lysates (in vitro); endogenous in cells; experiment: competitive isoTOP-ABPP; assay type: binding; set-up: key: R = MS1 peak area ratio, DMSO (heavy) / compound-treated (light); settings: 50 uM, 231 sol, in vitro
Sequence (P50583 whole entry): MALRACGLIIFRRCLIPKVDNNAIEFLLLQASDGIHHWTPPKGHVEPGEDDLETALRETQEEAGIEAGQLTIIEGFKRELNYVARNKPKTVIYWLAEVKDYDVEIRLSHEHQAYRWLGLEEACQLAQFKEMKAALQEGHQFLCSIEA
Would you kindly list isoTOP-ABPP reactivity ratio at lysine P50583_K89 for each of these compounds?
Give bare numbers.

Examples from the recorded data:
O=C(CN1C(=O)c2ccccc2C1=O)Oc1c(F)c(F)c(F)c(F)c1F : 0.7
O=C(Oc1c(F)c(F)c(F)c(F)c1F)C1CCN(C(=O)OCc2ccccc2)CC1 : 0.9

Batch request: isoTOP-ABPP reactivity ratio at lysine P50583_K89 per item, same order as input.
1. Cn1cc(CC(=O)Oc2ccc([N+](=O)[O-])cc2[N+](=O)[O-])c2ccccc21
2. O=C(Oc1ccc([N+](=O)[O-])cc1[N+](=O)[O-])C(c1ccccc1)c1ccccc1 [fragment 30, 2,4-Dinitrophenyl 2,2-diphenylacetate]
3. CCn1cc(C(=O)Oc2c(F)c(F)c(F)c(F)c2F)c(=O)c2ccc(C)nc21
4. O=C(Oc1c(F)c(F)c(F)c(F)c1F)c1ccc2ccccc2n1
5. O=C(Oc1ccc([N+](=O)[O-])cc1[N+](=O)[O-])c1cc(C(F)(F)F)cc(C(F)(F)F)c1

1: 3.7; 2: 1.1; 3: 1.0; 4: 1.0; 5: 0.8

Batch request: isoTOP-ABPP reactivity ratio at lysine P50583_K89 per item, same order as input.
1. O=C(CCc1coc2cc(F)ccc2c1=O)Oc1c(F)c(F)c(F)c(F)c1F
2. COc1cc(CCC(=O)Oc2ccc([N+](=O)[O-])cc2[N+](=O)[O-])cc(OC)c1OC
3. O=C(CCc1cn(-c2ccccc2)nc1-c1ccccc1)Oc1ccc([N+](=O)[O-])cc1[N+](=O)[O-]

0.9
1.9
1.0

====

molecular target: MAP2K3 Dual specificity mitogen-activated protein kinase (Homo sapiens); construct: isoTOP-ABPP experiments performed in cell lysates (in vitro); endogenous in cells; host or cells: soluble proteome of human cancer cell lines (MDA-MB-231; Ramos and Jurkat also prepared); test: competitive isoTOP-ABPP; assay type: binding; details: 50 uM, in vitro, sol, 231
Sequence (P46734 whole entry): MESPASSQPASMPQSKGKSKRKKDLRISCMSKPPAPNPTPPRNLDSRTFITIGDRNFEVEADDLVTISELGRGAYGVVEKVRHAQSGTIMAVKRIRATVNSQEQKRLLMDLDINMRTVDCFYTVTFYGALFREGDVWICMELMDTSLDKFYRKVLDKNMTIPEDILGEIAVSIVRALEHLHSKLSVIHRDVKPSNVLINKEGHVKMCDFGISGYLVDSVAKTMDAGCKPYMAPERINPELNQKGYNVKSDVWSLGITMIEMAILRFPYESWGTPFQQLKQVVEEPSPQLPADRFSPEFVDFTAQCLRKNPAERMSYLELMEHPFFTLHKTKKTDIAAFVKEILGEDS
Would you kindly list isoTOP-ABPP ratio (R) at liganded lysine P46734_K93 for each of these molecules?
Give bare numbers.

CC(C)(C)OC(=O)NCCCC(=O)Oc1ccc([N+](=O)[O-])cc1[N+](=O)[O-] [fragment 41] : 0.9

Batch request: isoTOP-ABPP ratio (R) at liganded lysine P46734_K93 per item, same order as input.
1. O=C(Oc1ccc([N+](=O)[O-])cc1[N+](=O)[O-])C1CCN(C(=O)OCc2ccccc2)CC1 [fragment 34]
2. O=C(Oc1ccc([N+](=O)[O-])cc1[N+](=O)[O-])c1ccccc1Nc1cccc(C(F)(F)F)c1 [fragment 40]
3. O=C(Oc1ccc([N+](=O)[O-])cc1[N+](=O)[O-])C(c1ccccc1)(c1ccccc1)c1ccccc1 [fragment 42, 2,4-Dinitrophenyl 2,2,2-triphenylacetate]

1. 0.8
2. 1.0
3. 0.9

====

target: GLOD4 Glyoxalase domain-containing protein 4 (Homo sapiens, UniProt Q9HC38); construct: endogenous in cells; host or cells: MDA-MB-231 (soluble fraction of lysate); experiment: competitive isoTOP-ABPP; type: binding; settings: 50 uM, in vitro, sol, 231
Sequence (Q9HC38 whole entry, the tested form may be a part): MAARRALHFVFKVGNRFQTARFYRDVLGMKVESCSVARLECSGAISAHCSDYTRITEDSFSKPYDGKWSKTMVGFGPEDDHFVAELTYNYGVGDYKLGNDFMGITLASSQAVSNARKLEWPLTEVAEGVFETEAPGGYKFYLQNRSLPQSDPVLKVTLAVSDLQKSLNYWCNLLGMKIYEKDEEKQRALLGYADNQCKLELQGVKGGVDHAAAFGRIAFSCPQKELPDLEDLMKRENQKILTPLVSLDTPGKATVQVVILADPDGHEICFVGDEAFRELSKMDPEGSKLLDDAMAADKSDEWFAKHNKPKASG
Please enter y where isoTOP-ABPP ratio (R) at liganded lysine Q9HC38_K305 is greater than or equal to 0.9, and n where it is lower.

Worked examples follow.
O=C(CC12CC3CC(CC(C3)C1)C2)Oc1ccc([N+](=O)[O-])cc1[N+](=O)[O-] : y
O=C(Oc1ccc([N+](=O)[O-])cc1[N+](=O)[O-])C1CCN(C(=O)OCc2ccccc2)CC1 : y
O=C(Oc1ccc([N+](=O)[O-])cc1[N+](=O)[O-])c1ccc2ccccc2n1 : n

Would you say O=C(Oc1ccc([N+](=O)[O-])cc1[N+](=O)[O-])c1ccc(Oc2ccccc2)cc1 [fragment 39, 2,4-Dinitrophenyl 4-phenoxybenzoate] shows isoTOP-ABPP ratio (R) at liganded lysine Q9HC38_K305 at minimum 0.9?
n

Would you say CC(C)(C)OC(=O)NCCCC(=O)Oc1ccc([N+](=O)[O-])cc1[N+](=O)[O-] shows isoTOP-ABPP ratio (R) at liganded lysine Q9HC38_K305 at minimum 0.9?
y

Would you say O=C(Oc1ccc([N+](=O)[O-])cc1[N+](=O)[O-])c1ccccc1Nc1cccc(C(F)(F)F)c1 shows isoTOP-ABPP ratio (R) at liganded lysine Q9HC38_K305 at minimum 0.9?
n

Would you say CC(=O)Oc1ccc([N+](=O)[O-])cc1[N+](=O)[O-] [fragment 43, 2,4-Dinitrophenyl acetate] shows isoTOP-ABPP ratio (R) at liganded lysine Q9HC38_K305 at minimum 0.9?
n

Would you say O=C(Oc1ccc([N+](=O)[O-])cc1[N+](=O)[O-])c1ccc(-c2ccccc2)cc1 shows isoTOP-ABPP ratio (R) at liganded lysine Q9HC38_K305 at minimum 0.9?
n

====

target: KIAA1967 DBIRD complex subunit KIAA1967 (Homo sapiens, UniProt Q8N163); construct: isoTOP-ABPP experiments performed in cell lysates (in vitro); endogenous in cells; host or cells: soluble proteome of human cancer cell lines (MDA-MB-231; Ramos and Jurkat also prepared); assay: competitive isoTOP-ABPP; assay type: binding; details: 50 uM, 231 sol, in vitro
Sequence (Q8N163 whole entry, one chain of several): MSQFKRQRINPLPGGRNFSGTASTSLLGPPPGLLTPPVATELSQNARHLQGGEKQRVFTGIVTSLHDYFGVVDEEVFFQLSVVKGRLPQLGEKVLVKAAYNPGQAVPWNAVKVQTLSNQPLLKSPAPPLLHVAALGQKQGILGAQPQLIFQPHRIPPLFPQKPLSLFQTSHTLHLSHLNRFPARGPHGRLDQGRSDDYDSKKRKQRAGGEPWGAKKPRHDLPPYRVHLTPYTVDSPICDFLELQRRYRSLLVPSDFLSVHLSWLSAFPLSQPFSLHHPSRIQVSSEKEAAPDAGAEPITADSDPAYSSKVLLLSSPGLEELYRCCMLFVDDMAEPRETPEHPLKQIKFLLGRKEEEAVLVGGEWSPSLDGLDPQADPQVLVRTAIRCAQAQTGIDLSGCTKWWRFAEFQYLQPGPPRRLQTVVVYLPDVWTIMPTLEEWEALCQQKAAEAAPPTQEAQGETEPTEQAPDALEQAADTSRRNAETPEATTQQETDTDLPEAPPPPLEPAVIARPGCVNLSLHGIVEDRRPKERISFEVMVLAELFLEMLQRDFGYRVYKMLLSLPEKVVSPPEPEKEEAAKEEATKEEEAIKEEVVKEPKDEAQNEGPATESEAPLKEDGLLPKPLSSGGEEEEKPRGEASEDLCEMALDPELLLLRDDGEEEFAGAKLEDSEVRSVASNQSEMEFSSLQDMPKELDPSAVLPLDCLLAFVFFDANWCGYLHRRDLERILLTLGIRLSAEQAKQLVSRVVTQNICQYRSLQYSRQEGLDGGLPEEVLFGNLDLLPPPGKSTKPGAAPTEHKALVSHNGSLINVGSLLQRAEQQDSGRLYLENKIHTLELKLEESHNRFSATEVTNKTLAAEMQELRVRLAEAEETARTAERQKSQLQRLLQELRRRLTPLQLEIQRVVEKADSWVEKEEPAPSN
property measured: isoTOP-ABPP reactivity ratio at lysine Q8N163_K112

COc1cc(CCC(=O)Oc2ccc([N+](=O)[O-])cc2[N+](=O)[O-])cc(OC)c1OC : 0.9
O=C(CCc1coc2cc(F)ccc2c1=O)Oc1c(F)c(F)c(F)c(F)c1F : 1.1
Cn1cc(CC(=O)Oc2ccc([N+](=O)[O-])cc2[N+](=O)[O-])c2ccccc21 : 1.2

Now examine the next entry.
isoTOP-ABPP reactivity ratio at lysine Q8N163_K112 recorded for this molecule, O=C(Oc1ccc([N+](=O)[O-])cc1[N+](=O)[O-])c1cc(C(F)(F)F)cc(C(F)(F)F)c1 , is 1.0

====

target: GOLGB1 Golgin subfamily B member 1 (Homo sapiens); construct: isoTOP-ABPP experiments performed in cell lysates (in vitro); endogenous in cells; host or cells: soluble proteome of human cancer cell lines (MDA-MB-231, Ramos, Jurkat); test: competitive isoTOP-ABPP; assay type: binding; details: 50 uM, 231 sol, in vitro
Sequence (Q14789 whole entry): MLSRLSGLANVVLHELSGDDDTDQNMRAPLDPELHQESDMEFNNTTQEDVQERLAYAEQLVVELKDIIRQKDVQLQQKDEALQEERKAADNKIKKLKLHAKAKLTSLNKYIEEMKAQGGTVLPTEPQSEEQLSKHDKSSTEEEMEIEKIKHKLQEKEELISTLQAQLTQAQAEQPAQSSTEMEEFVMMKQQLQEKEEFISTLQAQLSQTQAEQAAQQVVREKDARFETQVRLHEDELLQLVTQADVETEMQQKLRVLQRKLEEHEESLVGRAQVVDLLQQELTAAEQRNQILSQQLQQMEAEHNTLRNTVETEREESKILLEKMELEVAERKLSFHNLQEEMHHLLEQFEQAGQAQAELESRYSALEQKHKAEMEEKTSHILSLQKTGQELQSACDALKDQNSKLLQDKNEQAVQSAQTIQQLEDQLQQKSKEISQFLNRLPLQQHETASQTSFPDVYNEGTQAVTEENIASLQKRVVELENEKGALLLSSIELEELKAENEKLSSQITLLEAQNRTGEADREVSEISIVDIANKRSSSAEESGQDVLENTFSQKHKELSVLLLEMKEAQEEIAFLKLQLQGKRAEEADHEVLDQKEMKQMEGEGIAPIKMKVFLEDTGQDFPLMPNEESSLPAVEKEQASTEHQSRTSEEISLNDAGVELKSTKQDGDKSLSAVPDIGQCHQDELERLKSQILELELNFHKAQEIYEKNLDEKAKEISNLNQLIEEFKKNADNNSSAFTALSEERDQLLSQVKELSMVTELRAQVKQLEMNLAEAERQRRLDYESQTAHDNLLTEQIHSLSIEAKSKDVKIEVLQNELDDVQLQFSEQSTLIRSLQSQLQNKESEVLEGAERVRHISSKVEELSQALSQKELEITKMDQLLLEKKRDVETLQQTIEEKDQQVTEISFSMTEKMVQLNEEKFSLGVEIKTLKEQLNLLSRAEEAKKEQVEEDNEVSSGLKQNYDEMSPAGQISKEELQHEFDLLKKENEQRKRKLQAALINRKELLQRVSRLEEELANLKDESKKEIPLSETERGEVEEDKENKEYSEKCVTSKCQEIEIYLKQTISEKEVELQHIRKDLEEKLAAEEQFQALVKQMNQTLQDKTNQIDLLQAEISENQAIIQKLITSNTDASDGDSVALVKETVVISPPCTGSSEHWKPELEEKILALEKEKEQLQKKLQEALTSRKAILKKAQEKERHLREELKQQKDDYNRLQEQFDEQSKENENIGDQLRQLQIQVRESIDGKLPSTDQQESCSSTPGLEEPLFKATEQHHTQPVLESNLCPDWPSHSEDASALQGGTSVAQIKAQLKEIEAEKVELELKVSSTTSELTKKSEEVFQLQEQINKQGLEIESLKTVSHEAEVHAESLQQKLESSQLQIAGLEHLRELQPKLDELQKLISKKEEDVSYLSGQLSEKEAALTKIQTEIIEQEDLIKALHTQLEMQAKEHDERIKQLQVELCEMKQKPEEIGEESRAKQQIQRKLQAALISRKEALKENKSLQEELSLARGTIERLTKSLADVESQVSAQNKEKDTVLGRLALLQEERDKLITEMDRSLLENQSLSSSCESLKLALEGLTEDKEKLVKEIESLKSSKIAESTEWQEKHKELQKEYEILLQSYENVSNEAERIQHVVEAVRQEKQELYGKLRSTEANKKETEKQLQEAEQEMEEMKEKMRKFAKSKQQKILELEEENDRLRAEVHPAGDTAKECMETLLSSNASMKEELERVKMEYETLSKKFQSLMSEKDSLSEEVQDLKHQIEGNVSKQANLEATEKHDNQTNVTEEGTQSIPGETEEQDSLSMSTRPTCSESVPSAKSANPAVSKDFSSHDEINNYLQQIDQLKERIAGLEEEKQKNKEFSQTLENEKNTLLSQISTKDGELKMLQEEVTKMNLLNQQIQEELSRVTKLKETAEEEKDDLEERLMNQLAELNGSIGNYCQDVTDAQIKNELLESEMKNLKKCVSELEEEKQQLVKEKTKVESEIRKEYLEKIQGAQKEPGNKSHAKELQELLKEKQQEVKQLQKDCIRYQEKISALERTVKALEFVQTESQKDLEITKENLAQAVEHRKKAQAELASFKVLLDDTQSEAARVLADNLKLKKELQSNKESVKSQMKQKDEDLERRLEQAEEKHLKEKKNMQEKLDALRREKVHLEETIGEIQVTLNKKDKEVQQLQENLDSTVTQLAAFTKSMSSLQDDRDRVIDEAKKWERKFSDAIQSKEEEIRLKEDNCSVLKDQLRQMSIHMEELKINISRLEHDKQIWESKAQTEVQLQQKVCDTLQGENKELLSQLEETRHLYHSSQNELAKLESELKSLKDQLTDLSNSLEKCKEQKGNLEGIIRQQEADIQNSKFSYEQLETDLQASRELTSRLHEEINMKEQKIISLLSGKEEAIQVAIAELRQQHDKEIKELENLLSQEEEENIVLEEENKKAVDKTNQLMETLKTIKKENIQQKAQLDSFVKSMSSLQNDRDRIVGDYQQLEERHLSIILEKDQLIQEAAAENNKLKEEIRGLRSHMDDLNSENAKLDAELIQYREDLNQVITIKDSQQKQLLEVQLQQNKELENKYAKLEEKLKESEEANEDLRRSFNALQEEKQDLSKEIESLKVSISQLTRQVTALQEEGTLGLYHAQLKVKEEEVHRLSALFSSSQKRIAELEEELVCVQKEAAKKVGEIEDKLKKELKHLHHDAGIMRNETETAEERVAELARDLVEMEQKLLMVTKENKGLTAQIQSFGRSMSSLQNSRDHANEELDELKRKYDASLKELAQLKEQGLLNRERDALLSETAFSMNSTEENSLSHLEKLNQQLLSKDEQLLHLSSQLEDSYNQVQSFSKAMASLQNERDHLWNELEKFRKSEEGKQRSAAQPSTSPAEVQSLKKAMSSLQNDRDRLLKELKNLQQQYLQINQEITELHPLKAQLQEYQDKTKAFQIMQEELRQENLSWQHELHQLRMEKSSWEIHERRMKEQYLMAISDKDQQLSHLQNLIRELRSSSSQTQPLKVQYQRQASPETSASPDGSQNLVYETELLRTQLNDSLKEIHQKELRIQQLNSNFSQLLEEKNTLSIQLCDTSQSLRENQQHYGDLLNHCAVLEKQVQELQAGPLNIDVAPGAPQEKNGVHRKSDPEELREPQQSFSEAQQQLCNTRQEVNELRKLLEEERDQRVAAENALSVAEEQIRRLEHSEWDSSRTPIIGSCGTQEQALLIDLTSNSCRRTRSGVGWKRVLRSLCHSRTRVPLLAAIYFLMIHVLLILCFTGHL
Would you kindly list isoTOP-ABPP reactivity ratio at lysine Q14789_K103 for each of these compounds?
Numbers only.

Examples from the recorded data:
O=C(Oc1ccc([N+](=O)[O-])cc1[N+](=O)[O-])C(c1ccccc1)c1ccccc1 [fragment 30, 2,4-Dinitrophenyl 2,2-diphenylacetate] : 1.4
O=C(Oc1c(F)c(F)c(F)c(F)c1F)C1CCN(C(=O)OCc2ccccc2)CC1 [fragment 24] : 1.0
Cn1cc(CC(=O)Oc2ccc([N+](=O)[O-])cc2[N+](=O)[O-])c2ccccc21 [fragment 32] : 7.0

Now examine the next entry.
# isoTOP-ABPP reactivity ratio at lysine Q14789_K103 measured on GOLGB1 Golgin subfamily B member 1 (Homo sapiens) for item COc1cc(CCC(=O)Oc2ccc([N+](=O)[O-])cc2[N+](=O)[O-])cc(OC)c1OC [fragment 33] = 1.0

====

Molecular target: FAH Fumarylacetoacetase (Homo sapiens, UniProt P16930)
Construct: isoTOP-ABPP experiments performed in cell lysates (in vitro); endogenous in cells; host or cells: soluble proteome of human cancer cell lines (MDA-MB-231; Ramos and Jurkat also prepared)
Sequence (P16930 1-419): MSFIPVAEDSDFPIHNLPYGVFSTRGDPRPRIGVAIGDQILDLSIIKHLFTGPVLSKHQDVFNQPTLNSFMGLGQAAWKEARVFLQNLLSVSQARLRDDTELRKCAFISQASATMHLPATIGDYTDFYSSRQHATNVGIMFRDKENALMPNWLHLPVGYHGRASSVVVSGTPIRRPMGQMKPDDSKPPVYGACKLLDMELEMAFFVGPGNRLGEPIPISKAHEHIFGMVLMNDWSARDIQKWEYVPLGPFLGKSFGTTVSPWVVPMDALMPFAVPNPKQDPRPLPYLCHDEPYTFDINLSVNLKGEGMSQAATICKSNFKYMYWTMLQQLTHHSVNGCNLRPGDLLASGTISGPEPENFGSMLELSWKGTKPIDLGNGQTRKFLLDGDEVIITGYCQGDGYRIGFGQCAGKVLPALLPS
Assay: competitive isoTOP-ABPP
Format: binding
Settings: 50 uM_231_sol_in vitro
Please enter rule met where isoTOP-ABPP ratio, lysine P16930_K241 is greater than or equal to 1, and rule not met where it is lower.

O=C(Oc1c(F)c(F)cc(F)c1F)c1cc(C(F)(F)F)cc(C(F)(F)F)c1 : rule met
O=C(CCc1ccc2c(c1)OCO2)Oc1ccc([N+](=O)[O-])cc1[N+](=O)[O-] : rule met
O=C(Oc1c(F)c(F)c(C(F)(F)F)c(F)c1F)c1cc(C(F)(F)F)cc(C(F)(F)F)c1 : rule met
NC(=O)c1cc(C(F)(F)F)cc(C(F)(F)F)c1 [fragment 51, reference compound] : rule not met
O=C(ON1C(=O)CCC1=O)c1cc(C(F)(F)F)cc(C(F)(F)F)c1 : rule met

Would you say N#Cc1ccc(C(=O)Oc2ccc([N+](=O)[O-])cc2[N+](=O)[O-])cc1 [fragment 44, 2,4-Dinitrophenyl 4-cyanobenzoate] shows isoTOP-ABPP ratio, lysine P16930_K241 at minimum 1?
rule met
